molecular target: 3A4 subtype of CYP450 enzyme (Homo sapiens (Human)); assay: 3A4 subtype of CYP450 enzyme time-dependent inhibition assay (IC50 shift); conditions: both IC50 values above top concentration; testosterone substrate; read-out: IC50 against 3A4 subtype (both groups, pre-incubated with and without NADPH)
Sequence (P08684 whole entry): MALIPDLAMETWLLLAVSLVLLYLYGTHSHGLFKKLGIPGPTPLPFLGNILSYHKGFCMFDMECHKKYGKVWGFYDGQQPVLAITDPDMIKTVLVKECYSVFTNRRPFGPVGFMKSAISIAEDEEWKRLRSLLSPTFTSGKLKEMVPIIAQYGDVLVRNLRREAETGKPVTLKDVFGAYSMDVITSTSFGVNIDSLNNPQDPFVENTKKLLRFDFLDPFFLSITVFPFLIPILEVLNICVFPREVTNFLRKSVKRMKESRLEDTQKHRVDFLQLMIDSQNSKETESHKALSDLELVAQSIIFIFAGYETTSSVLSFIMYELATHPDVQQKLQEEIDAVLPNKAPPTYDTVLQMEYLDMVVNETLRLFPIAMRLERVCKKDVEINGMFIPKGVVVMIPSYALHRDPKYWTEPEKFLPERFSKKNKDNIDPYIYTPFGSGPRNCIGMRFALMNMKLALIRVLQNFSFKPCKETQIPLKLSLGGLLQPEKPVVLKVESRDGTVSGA
pIC50: −log10 of the molar value.
Endpoint: pIC50

Some entries whose results are on file:
CCN(c1nc(-c2ccc(F)cc2)c(C#N)s1)c1c2nc(-c3cnc(N4CCCS4(=O)=O)nc3)ccc2nn1CC :: < 4.00
CCN(c1nc(-c2ccc(F)cc2)c(C#N)s1)c1c2nc(-c3cnc(N4CCOCC4)nc3)ccc2nn1CC :: < 4.00

// moving on: another record for pIC50
Reported pIC50, molecule CCN(c1nc(-c2ccc(F)cc2)c(C#N)s1)c1c2nc(-c3cnc(N4CC(O)C4)nc3)ccc2nn1CC : ____
< 4.00

###

Reported values of Cl_F_pred for individual entries
assay: Rat pharmacokinetic study; assay type: in vivo, SD rat; conditions: PO 10 mg/kg
Please append the unit to your numeric answer.

Some entries whose results are on file:
CCN(c1nc(-c2ccc(F)cc2)c(C#N)s1)c1c2nc(-c3cnc(N4CCC(O)CC4)nc3)ccc2nn1CC :: 25 mL/min/kg
CCc1nc2c(C)cc(N3CCN(CC(=O)N4CC(O)C4)CC3)cn2c1N(C)c1nc(-c2ccc(F)cc2)c(C#N)s1 :: 65.5 mL/min/kg

Reported Cl_F_pred, compound CCN(c1nc(-c2ccc(F)cc2)c(C#N)s1)c1c2nc(-c3cnc(N4CC[C@@H](O)C4)nc3)ccc2nn1CC : ____
10 mL/min/kg

Reported Cl_F_pred, compound CCN(c1nc(-c2ccc(F)cc2)c(C#N)s1)c1c2nc(-c3cnc(N4CCCS4(=O)=O)nc3)ccc2nn1CC : ____
18.2 mL/min/kg

Reported Cl_F_pred, compound CCN(c1nc(-c2ccc(F)cc2)c(C#N)s1)c1c2nc(-c3cnc(N4CCOCC4)nc3)ccc2nn1CC : ____
18.3 mL/min/kg

###

Reported values of Tmax for individual entries
assay: Rat pharmacokinetic study; type: in vivo, SD rat; conditions: SD, plasma, PO 10 mg/kg
Numeric answer only, unit h assumed.

Some entries whose results are on file:
CCN(c1nc(-c2ccc(F)cc2)c(C#N)s1)c1c2nc(-c3cnc(N4CCC(O)CC4)nc3)ccc2nn1CC [Example 26] :: 4
CCc1nc2c(C)cc(N3CCN(CC(=O)N4CC(O)C4)CC3)cn2c1N(C)c1nc(-c2ccc(F)cc2)c(C#N)s1 [GLPG1690] :: 1
CCN(c1nc(-c2ccc(F)cc2)c(C#N)s1)c1c2nc(-c3cnc(N4CCOCC4)nc3)ccc2nn1CC [Example 29] :: 3.3

Reported Tmax, compound CCN(c1nc(-c2ccc(F)cc2)c(C#N)s1)c1c2nc(-c3cnc(N4CCCS4(=O)=O)nc3)ccc2nn1CC [Example 17] : ____
4

Reported Tmax, compound CCN(c1nc(-c2ccc(F)cc2)c(C#N)s1)c1c2nc(-c3cnc(N4CC[C@@H](O)C4)nc3)ccc2nn1CC [Example 28] : ____
4

###

assay: Rat pharmacokinetic study; assay type: in vivo, SD rat; settings: IV 2 mg/kg
The threshold is 4 mL/min/kg. Values of Cl_F_pred beneath it are tagged YES; values meeting or exceeding it are tagged NO.

Below are worked cases with known answers.
CCN(c1nc(-c2ccc(F)cc2)c(C#N)s1)c1c2nc(-c3cnc(N4CCOCC4)nc3)ccc2nn1CC :: NO
CCN(c1nc(-c2ccc(F)cc2)c(C#N)s1)c1c2nc(-c3cnc(N4CCC(O)CC4)nc3)ccc2nn1CC :: NO
CCN(c1nc(-c2ccc(F)cc2)c(C#N)s1)c1c2nc(-c3cnc(N4CCCS4(=O)=O)nc3)ccc2nn1CC :: NO

Please indicate whether the reported Cl_F_pred of CCc1nc2c(C)cc(N3CCN(CC(=O)N4CC(O)C4)CC3)cn2c1N(C)c1nc(-c2ccc(F)cc2)c(C#N)s1 is strictly below 4 mL/min/kg.
NO

Please indicate whether the reported Cl_F_pred of CCN(c1nc(-c2ccc(F)cc2)c(C#N)s1)c1c2nc(-c3cnc(N4CC[C@@H](O)C4)nc3)ccc2nn1CC is strictly below 4 mL/min/kg.
YES
